Cited source: patent US9976134B2

- Test Details: Stability assay in 25% TIDE 2X detergent with DTPA (residual Abz-AGLA-Nba protease activity)
- Type: physicochemical
- Test Settings: 60 min at 32°C; variant residual AGLA activity divided by wild-type residual activity
Measurement Kind: PI (relative stability), 25% TIDE 2X with DTPA

State the recorded PI (relative stability), 25% TIDE 2X with DTPA for this entry: T278N: single-substitution thermolysin variant (SEQ ID NO:3 numbering) (protein, listed as Geobacillus caldoproteolyticus) ITGTSTVGVGRGVLGDQKNINTTYSTYYYLQDNTRGNGIFTYDAKYRTTLPGSLWADADNQFFASYDAPAVDAHYYAGVTYDYYKNVHNRLSYDGNNAAIRSSVHYSQGYNNAFWNGSQMVYGDGDGQTFIPLSGGIDVVAHELTHAVTDYTAGLIYQNESGAINEAISDIFGTLVEFYANKNPDWEIGEDVYTPGISGDSLRSMSDPAKYGDPDHYSKRYTGTQDNGGVHINSGIINKAAYLISQGGTHYGVSVVGIGRDKLGKIFYRALTQYLTPNSNFSQLRAAAVQSATDLYGSTSQEVASVKQAFDAVGVK 1.07

# iterate: Y151R: single-substitution thermolysin variant (SEQ ID NO:3 numbering) (protein, listed as Geobacillus caldoproteolyticus) ITGTSTVGVGRGVLGDQKNINTTYSTYYYLQDNTRGNGIFTYDAKYRTTLPGSLWADADNQFFASYDAPAVDAHYYAGVTYDYYKNVHNRLSYDGNNAAIRSSVHYSQGYNNAFWNGSQMVYGDGDGQTFIPLSGGIDVVAHELTHAVTDRTAGLIYQNESGAINEAISDIFGTLVEFYANKNPDWEIGEDVYTPGISGDSLRSMSDPAKYGDPDHYSKRYTGTQDNGGVHINSGIINKAAYLISQGGTHYGVSVVGIGRDKLGKIFYRALTQYLTPTSNFSQLRAAAVQSATDLYGSTSQEVASVKQAFDAVGVK 1.26
